# method: Stability in liver microsomes, rat
readoutName: Treprostinil Concentration 0 min (µM)
A number alone suffices; assume µM.

Check out these entries, answers already filled in.
>>> observedmeasurement("CCCCCC(CCC1C(O)CC2Cc3c(cccc3OCC(=O)O)CC21)OP(=O)(O)O (stereo not shown) [Prodrug VI]")
0.27
>>> observedmeasurement("CCCCCC(CCC1C(O)CC2Cc3c(cccc3OCC(=O)O)CC21)OC(=O)CC (stereo not shown) [Prodrug LV]")
0.26
>>> observedmeasurement("CCCCCC(CCC1C(O)CC2Cc3c(cccc3OCC(=O)O)CC21)OC(C)=O (stereo not shown) [Prodrug XLIII]")
0.035

Switching to the query record.
**Q:** What does the data say about its Treprostinil Concentration 0 min? Entry: CCCCCC(CCC1C(OC(=O)CC)CC2Cc3c(cccc3OCC(=O)O)CC21)OC(=O)CC (stereo not shown) [Prodrug LXX, treprostinil dipropionate]
**A:** 0.336
